# experimentNotes: chemical genetic growth profiling, strain panel (AID 1159580);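 note: tested at 20 µM; growth read once vehicle control cultures reached saturation at 30 °C; 1 = growth at the plate median or of vehicle wells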
# details: S. cerevisiae deletion strains, growth OD, locus YGL167C, strain pmr1, stronger effect = lower value
Out of some 5,500 compounds screened, about 2,000 (36%) were called active. Not shown: some 18% with an inconclusive outcome. This is one part of the list.
Checkbox rule: normalized growth lower than 1 = criterion met; normalized growth not lower than 1 = criterion not met.

Problem: Is normalized growth of COC(=O)C1=COC(OC2OC(CO)C(O)C(O)C2O)C2C(C)CC(=O)C12O (centres undefined) strictly below 1?
Result: criterion met

Problem: In plain terms, does CCCCCC(C)N (centres undefined) come in under 1 for normalized growth?
Result: criterion not met

Problem: Report whether reported normalized growth is lower than 1 (strictly) for C[CH2][Hg][S]c1ccccc1C(=O)O
Result: criterion met

Next:
Problem: Dear colleague, could you confirm whether normalized growth of S=C=NCc1ccccc1 falls below 1? Thanks.
Result: criterion met

---

# experimentNotes: chemical genetic growth profiling, strain panel (AID 1159580)
# details: S. cerevisiae deletion strains, growth OD, locus YLR357W, strain rsc2, stronger effect = lower value
The whole screen tested about 5,500 compounds, of which about 2,000 (36%) were called active. About 18% were inconclusive and are not listed. The list shows a part of the results.
Checkbox rule: normalized growth lower than 1 = T; normalized growth not lower than 1 = F.

The following molecules have reported results that may help.
Problem: Find out if reported normalized growth for COc1ccc(C2CC(=O)c3ccc(OC)cc3O2)cc1 (stereo not drawn) is less than 1
Result: T

Problem: Answer whether the molecule O=C1CC(c2ccc(O)c(O)c2)Oc2cc(O)cc(O)c21 (stereo not drawn) has normalized growth strictly less than 1
Result: T

Problem: Bench note: check whether CN1C2CC3C[C@H]1C(O3)C2O (stereo partly drawn) shows normalized growth below 1
Result: F

Problem: In the record for c1ccc(CC2=NCCN2)cc1 , is normalized growth less than 1?
Result: F

New cases:
Problem: Would you kindly verify if normalized growth of Cc1cc(C(C)(C)CC(C)(C)C)ccc1OCCOCC[N+](C)(C)Cc1ccccc1 is strictly less than 1?
Result: T

Problem: # strict comparison: is reported normalized growth < 1? input = c1ccc(CN(CC2=NCCN2)c2ccccc2)cc1
Result: F

Problem: State whether 1 exceeds normalized growth recorded for C[C@@H]1O[C@@H](O[C@H]2[C@@H](Oc3cc(O)c4c(c3)O[C@H](c3ccc(O)cc3)CC4=O)O[C@H](CO)[C@@H](O)[C@@H]2O)[C@H](O)[C@H](O)[C@H]1O .
Result: T

---

# experimentNotes: chemical genetic growth profiling, strain panel (AID 1159580)
# details: S. cerevisiae deletion strains, growth OD, locus YNL248C, strain rpa49, stronger effect = lower value
Screen size: about 5,500 compounds; about 2,000 (36%) were called active. Not shown: some 18% with an inconclusive outcome. The list shows a part of the results.
Rule for this label: satisfied means normalized growth is less than 1; not satisfied means normalized growth is at least 1.

Examples with answers:
Problem: is_below(normalized growth, 1) for CCCCCCCC/C=C/CCCCCCCCOP(=O)([O-])OCC[N+](C)(C)C ?
Result: satisfied

Problem: Quick check: normalized growth of COc1ccc(-c2cc(=O)c3c(O)cc(OC)c(OC)c3o2)c(OC)c1 under 1?
Result: not satisfied

Problem: Record O=C(/C=C/C=C/c1ccc2c(c1)OCO2)N1CCCCC1 : is its normalized growth strictly below 1?
Result: satisfied

Next:
Problem: Identify whether the molecule CCCCCCCCCCCCCCCCOP(=O)([O-])OCC[N+](C)(C)C records normalized growth below 1.
Result: satisfied

---

# experimentNotes: chemical genetic growth profiling, strain panel (AID 1159580);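 note: tested at 20 µM; growth read once vehicle control cultures reached saturation at 30 °C; 1 = growth at the plate median or of vehicle wells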
# details: S. cerevisiae deletion strains, growth OD, locus YLR371W, strain rom2, stronger effect = lower value
Out of some 5,500 compounds screened, about 2,000 (36%) were called active. About 18% were inconclusive and are not listed. This is one part of the list.
measuredMetric: normalized growth
Just the number, please, no unit after it.

See these solved cases before continuing.
Problem: Which normalized growth reading was recorded for the compound CCc1cccc(C)c1N(C(=O)CCl)C(C)COC (configuration not stated) ?
Result: 1.02

Problem: Entry CC1(C)C2CC[C@]3(C)C(C(=O)C=C4[C@H]5C[C@@](C)(C(=O)O)CC[C@]5(C)CC[C@]43C)[C@@]2(C)CC[C@@H]1O (some centres not stated) : reported normalized growth = ?
Result: 1

Problem: Consider the compound CC(C)CC1C(=O)N2CCC[C@H]2C2(O)O[C@](NC(=O)C3C=C4c5cccc6[nH]c(Br)c(c56)C[C@H]4N(C)C3)(C(C)C)C(=O)N12 (some centres not stated) and give its measured normalized growth.
Result: 0.977

Problem: Which normalized growth value belongs to COc1ccc(-c2c(O)c3cc4c(c(CC=C(C)C)c3oc2=O)OC(C)(C)CC4)cc1 ?
Result: 1.02

Problem: So what does the record say about normalized growth for Oc1c(Cl)c(Cl)c(Cl)c(Cl)c1Cl ?
Result: 0.79

Next:
Problem: Entry under review: COc1ccc(C[C@H]2NC[C@H](O)[C@H]2OC(C)=O)cc1 . Reported normalized growth?
Result: 0.728

Problem: So what's the measured normalized growth for this one? S=C=NCc1ccccc1
Result: 0.0645

Problem: Could you tell me which normalized growth is on file for COc1cc(OC)c2c(c1)OC(c1ccccc1)CC2=O (configuration not stated) ?
Result: 1.02

Problem: Give its normalized growth value. Item: O=c1ccc2ccccc2o1
Result: 0.976

Problem: Quick one: normalized growth of O=C(O)c1cc(=O)c2cc(Cl)ccc2[nH]1 ?
Result: 1.02

Problem: For the compound shown here, NC(N)=NOCC[C@H](N)C(=O)O , give the reported normalized growth.
Result: 0.964

Problem: Find the recorded normalized growth belonging to CCCCOc1ccc(CC(=O)NO)cc1 and report it.
Result: 0.999

Problem: Entry under review: Cn1cc[nH]c1=S . Reported normalized growth?
Result: 0.983

Problem: // query normalized growth value for entry CN=C(NC#N)NCCSCc1nc[nH]c1C
Result: 0.993

---

# experimentNotes: chemical genetic growth profiling, strain panel (AID 1159580);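 note: tested at 20 µM; growth read once vehicle control cultures reached saturation at 30 °C; 1 = growth at the plate median or of vehicle wells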
# details: S. cerevisiae deletion strains, growth OD, locus YJL129C, strain trk1, stronger effect = lower value
The campaign covered roughly 5,500 compounds. About 2,000 (36%) were called active. About 18% were inconclusive and are not listed. The list shows a part of the results.
# note: boundary value 1 maps to no; normalized growth below it maps to yes

Some solved entries appear below for comparison.
Problem: # check: normalized growth < 1 for Cc1cc(OC(=O)N2CCCCC2)c(C(C)C)cc1[N+](C)(C)C
Result: no

Problem: Would you kindly verify if normalized growth of OCc1ccccc1O[C@@H]1O[C@H](CO)[C@@H](O)[C@H](O)[C@H]1O is strictly less than 1?
Result: yes

Continuing:
Problem: Hello, I'm reviewing records and need to know if normalized growth of CCCCCCCC/C=C/CCCCCCCCOP(=O)([O-])OCC[N+](C)(C)C is below 1. Could you check?
Result: yes

---

# experimentNotes: chemical genetic growth profiling, strain panel (AID 1159580);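 note: tested at 20 µM; growth read once vehicle control cultures reached saturation at 30 °C; 1 = growth at the plate median or of vehicle wells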
# details: S. cerevisiae deletion strains, growth OD, locus YBR171W, strain sec66, stronger effect = lower value
Among all 5,500 compounds or so, about 2,000 (36%) were called active. Inconclusive results (about 18%) are left out. The list shows a part of the results.
Quick reference: normalized growth of the listed items.
Reply briefly: the number, and no unit.

Worked cases, answers included:
Problem: normalized growth for C[C@@H](N)CO ?
Result: 0.967

Problem: Please look up its normalized growth: CC(C)(N=NC(C)(C)C(=N)N)C(=N)N
Result: 1.03

Problem: Data request, read-out normalized growth, for OCc1ccccc1O[C@@H]1O[C@H](CO)[C@@H](O)[C@H](O)[C@H]1O
Result: 0.98

Problem: Any idea what its normalized growth is? The molecule is CC(=O)OC1CC23CC24CCC(OC2OCC(O)C(O)C2O)C(C)(C)C4CCC3C2(C)CC3OC4(CC(C)C3C12C)OC(O)C1(C)OC41 (stereo not given)
Result: 1.02

Problem: Requested field: normalized growth. Item: CN=C(NC#N)NCCSCc1nc[nH]c1C
Result: 0.996

Problem: Given the molecule CC(C)CC1C(=O)N2CCC[C@H]2C2(O)O[C@](NC(=O)C3C=C4c5cccc6[nH]c(Br)c(c56)C[C@H]4N(C)C3)(C(C)C)C(=O)N12 (stereo not given in full) , what is its reported normalized growth?
Result: 0.981

Problem: Report normalized growth for CC(C)(CO)C(O)C(=O)NCCCO (stereo not given) please.
Result: 1.03

Problem: Bench note: what normalized growth did CN1CCCC(n2nc(Cc3ccc(Cl)cc3)c3ccccc3c2=O)CC1 (stereo not given) show?
Result: 0.989

Next up:
Problem: # lookup: normalized growth of CCc1nc(N)nc(N)c1-c1ccc(Cl)cc1
Result: 0.969
